- Test system: P12-Ichikawa
- test name: cell viability relative to DMSO control; higher = less cytotoxic
- conditions: HPLM + 10% dialyzed FBS; 48 h; 0.0211 µM
cell viability values by entry
Provide the reading as a plain figure in %.

compound: C#Cc1cccc(Nc2ncnc3cc(OC)c(OCCCCCCC(=O)NO)cc23)c1
cell viability, %: 124
--
compound: COc1cc(OC)c(NC(=O)Nc2cc(C)on2)cc1Cl
cell viability, %: 99.6

Task item: Write down the reported cell viability (system: P12-Ichikawa) of Cc1ccc(-c2ncn(-c3ccc(Nc4nccc(-c5cccc(N6CCOCC6)c5)n4)cc3)n2)cn1
Reply: 98.2

Task item: Write down the reported cell viability (system: P12-Ichikawa) of N#CC(=C(/N)Sc1ccccc1N)/C(C#N)=C(\N)Sc1ccccc1N
Reply: 128

Cited source: the supplement of paper PMC11451515
